assay: Apparent partition coefficients was determined at a pH 7.4 by using the capacity factors of RP-HPLC.; type: physicochemical; details: octanol/water
outcome-measure: chromatographic logD

Observe how each entry below is paired with its result.
Request: Provide one value: measured chromatographic logD of CC(C)(C)C(=O)OCOP(=O)(O)C(Cl)(Cl)P(=O)(OCOC(=O)C(C)(C)C)OCOC(=O)C(C)(C)C
Result: 1.56

Request: Provide one value: measured chromatographic logD of CC(C)(C)C(=O)OCOP(=O)(OCOC(=O)C(C)(C)C)C(Cl)(Cl)P(=O)(OCOC(=O)C(C)(C)C)OCOC(=O)C(C)(C)C
Result: 7.4

Note: attention shifts to another entry.
Request: Provide one value: measured chromatographic logD of C1CCNCC1.C1CCNCC1.CC(C)(C)C(=O)OCOP(=O)(O)C(Cl)(Cl)P(=O)(O)OCOC(=O)C(C)(C)C
Result: -2.13
